Tested on: U251 CNS
Method: NCI-60 one-dose screen, 48 h
Assay setup: 10 µM unless noted
Compounds without any hit were thinned out: in the full panel of roughly 83,000, 20% have a hit. Activity calls are given as the source filed them. How the source made its calls: active means growth percent below 10; inactive means the rest.
// allowed return values: TRUE for active, FALSE for inactive

>>> group("CCCC(=O)O[C@@H]1C[C@H]2C[C@@H](O[C@@H]3O[C@@H](C)[C@@H](O)[C@@H](O)[C@H]3OC)C[C@@H](C[C@@H](C)/C=C/C=C\\C[C@@H]3O[C@@H](C[C@@H]3C)[C@@H](O)C[C@H]3C[C@@]1(O)C(=O)O3)O2")
"FALSE"
>>> group("O=C1C(=Cc2cn(Cc3ccccc3)c3ccccc23)C(=O)N(Cc2ccccc2)C(=O)N1Cc1ccccc1")
"FALSE"
>>> group("COc1ccc2c(c1)c(-c1nc(-c3cn(C)c4ncccc34)cs1)cn2CCN1CCOCC1")
"FALSE"
>>> group("Clc1ccc(N2COOC3(OOC2)C2CC4CC(C2)CC3C4)cc1")
"FALSE"
>>> group("CCCCCSC1C2C(=O)C(Br)=CC13CCNc1c(O)c4c5c(c13)=[N+]2CCC=5C=N4 (centres undefined)")
"TRUE"
>>> group("C1CCC2(CC1)OOCNCOO2")
"FALSE"

// query Give the logged outcome of this assay for the following compound: CCOP1(=O)CC(C)=C(Cl)C(P(=O)(OCC)OCC)C1 (centres undefined)
// result FALSE

// query Give the logged outcome of this assay for the following compound: `CC1=C(CN)C2=C(C)C3(CC3)[C@@](C)(O)C(=O)C2=C1`
// result FALSE

// query Give the logged outcome of this assay for the following compound: `CCCC[C@H](NC(=O)[C@H]1CCCN1C)C(=O)N(C)[C@H](C[C@@H](OC(C)=O)c1nc(C(=O)N[C@@H](Cc2ccccc2)C[C@H](C)C(=O)OCC)cs1)C(C)C`
// result TRUE
